Each record here notes measured melting point.
endpoint-name: melting point

molecule: Cc1ccc(S(=O)(=O)n2ccc3c(-c4c(-c5ccc(F)cc5)nc5ccc(Cl)nn45)ccnc32)cc1
endpoint-name: melting point
recorded-result: 244 to 246 °C
//
molecule: Cc1cc(C2N(c3ccccc3)CCN2c2ccccc2)cc(Cl)c1O
endpoint-name: melting point
recorded-result: 146 to 147 °C
//
molecule: CC(C)C1(C)N=C(c2c(C(=O)O)ccc3c2nnn3C)NC1=O (stereo not given)
endpoint-name: melting point
recorded-result: 250 to 254 °C
//
molecule: COC(=O)CCC(N=O)C(C)(C)Cl (stereo not given)
endpoint-name: melting point
recorded-result: 90 to 91 °C
//
molecule: Cc1cc(O)c2cccc(OCc3c(Cl)ccc([N+](=O)[O-])c3Cl)c2n1
endpoint-name: melting point
recorded-result: 255 to 258 °C
//
molecule: CCOCc1nc2c(N)nc3cc(-c4cccnc4)ccc3c2n1CC(C)(C)OCCS(C)(=O)=O
endpoint-name: melting point
recorded-result: 202 to 204 °C
//
molecule: CCCCc1c(Cl)cccc1NC(=O)C(C)(C)C
endpoint-name: melting point
recorded-result: 88 to 89 °C
//
molecule: COCCn1nnc2cc3c(cc2c1=O)OCN(C1CC1)C3=O
endpoint-name: melting point
recorded-result: 103 to 105 °C
//
molecule: O=C(O)c1ccccc1NC(=S)Cc1ccccc1
endpoint-name: melting point
recorded-result: 166 to 167 °C
//
molecule: COc1cc(O)c(C=O)cc1C12CC3CC(CC(C3)C1)C2
endpoint-name: melting point
recorded-result: 191 to 193 °C

* * *

endpoint-name: melting point

compound: CCON=C(CC)C1=C(O)CC(c2c(C)c([N+](=O)[O-])c(C)c([N+](=O)[O-])c2C)CC1=O (stereo not given)
endpoint-name: melting point
recorded-result: 170 °C

compound: NC(=O)c1ccc(CCCOCCCCCCNCC(O)c2cc(Cl)c(N)c(Cl)c2)cc1 (stereo not given)
endpoint-name: melting point
recorded-result: 91 to 94 °C

compound: Ic1ccc2c(c1)C(c1ccccc1)=NCc1nnc(Cc3ccccc3)n1-2
endpoint-name: melting point
recorded-result: 200 to 201 °C

compound: COC(=O)N/C(=C\C[PH](=O)CO)C(=O)O (stereo not given)
endpoint-name: melting point
recorded-result: 254 to 256 °C

compound: CCCCC[C@H]1CC[C@H](CC(=O)c2ccc(-c3ccc(CC)cc3F)cc2)CC1
endpoint-name: melting point
recorded-result: 72 to 73 °C

compound: CCOC(=O)NC(=O)C(C#N)=CNNc1ccc(OC(F)F)cc1
endpoint-name: melting point
recorded-result: 144 to 146 °C

compound: Cc1cc(C(=O)C(C#N)C(=O)Nc2ccc(F)cc2)c(C)n1C (stereo not given)
endpoint-name: melting point
recorded-result: 171 to 172 °C

compound: CCn1c(N)c(C(N)=O)c(=O)c2cnc(Nc3ccc(O)cc3)nc21
endpoint-name: melting point
recorded-result: > 260 °C

compound: COC(=O)c1ccc(-c2cc(CCNC(C)=O)c3cc(OC)ccc3c2)cc1
endpoint-name: melting point
recorded-result: 147 to 149 °C

compound: COc1ccc2cc(C3=CCC4(CCNCC4)CC3)ccc2c1
endpoint-name: melting point
recorded-result: 147 to 150 °C

* * *

Non-standard residues stand in square brackets, D forms with d. Residues, ends and D or L forms follow the SMILES beside them. *: point of attachment. pGlu = O=C1CC[CH](C(=O)O)N1; Morpholide = C1CN(*)CCO1; Thz = O=C(O)[CH]1CSCN1
Each record here notes measured melting point.

molecule: O=C1CCC(C(=O)N2CSCC2C(=O)N2CCOCC2)N1 (stereo not given) ([pGlu]-[Thz]-Morpholide; configuration not given here)
melting point: 187 to 188 °C

molecule: c1ccc(OCCCN2CCC(CNc3nc4ccccc4s3)CC2)cc1
melting point: 114 °C

molecule: CC(C)(C)c1ccc(C(=O)Nc2cn3nc(NCCc4ccncc4)ccc3n2)cc1
melting point: 279 °C

molecule: N#Cc1c(N2CCc3ccccc3CC2)nc(CCO)[nH]c1=O
melting point: 184 to 188 °C

molecule: CCOC12CC(C)(C)C(O1)C(OC(=O)c1ccc([N+](=O)[O-])cc1)C=C2C (stereo not given)
melting point: 144 to 146 °C

molecule: COc1cc2c(cc1OC)C(C)(C)Oc1c-2c(OC)cc2oc(C(=O)O)cc(=O)c12
melting point: 263 to 264 °C

molecule: CN(CCCOC(=O)Cc1ccccc1Nc1c(Cl)cccc1Cl)CC1(SN=O)CCCCC1
melting point: 58 to 60 °C

molecule: O=C(NCCCn1cnc(-c2ccccc2)c1)c1ccco1
melting point: 120 to 122 °C

molecule: Cc1nc(NCCSCc2csc(CN(C)C)n2)[nH]c(=O)c1Cc1cccnc1
melting point: 130 to 131 °C

molecule: CC1(O)CC(=O)OC(C=Cc2ccccc2)C1(C)Br (stereo not given)
melting point: 121 to 123 °C

molecule: CCCCCCCCCCCCCCC(=O)c1ccc2cc(O)c(O)cc2c1
melting point: 133 to 134 °C

molecule: COc1ccc(C(=O)NCc2cccc3c2C(=O)N(C2CCC(=O)NC2=O)C3=O)cc1 (stereo not given)
melting point: 193 to 195 °C

molecule: Cc1cccc(C(=O)NCN2CCN(c3ncccc3C#N)CC2)c1
melting point: 128 to 130 °C

molecule: CN1C(C)(C)CC(NC(=O)c2ccc(-c3cc4cc(Cl)c(Cl)cc4[nH]3)cc2)CC1(C)C
melting point: 325 °C

molecule: CC12CCC(O)CC1=CCC1C2CCC2(C)C(c3cncnc3)=CCC12 (stereo not given)
melting point: 231 to 233 °C

molecule: O=[N+]([O-])c1ccccc1-c1cc(F)c(F)c(F)c1
melting point: 79 °C

molecule: CCCCCCCCOC(=O)/C=C/c1ccccc1C1C(C(=O)OCC)=C(C)NC(C)=C1C(=O)OCC
melting point: 110 to 112 °C

molecule: CCn1cc(CN(C(=O)C2CCCc3cc(OCCO)ccc32)c2ccc(C(C)C)cc2)cn1 (stereo not given)
melting point: 137 °C

molecule: COc1ccc2c(c1)c(-c1cc3c(OC)ccnc3[nH]1)cn2C
melting point: 288 to 289 °C

molecule: NC(=S)Nc1ccccc1-c1cccc(F)c1
melting point: 157 to 159 °C

Provenance of the data: a melting point compilation (Tetko et al.; mined from patent text by program, amines drawn as free bases though some values may be those of a salt)
